experiment: in vitro; conditions: human
measured attribute: CC50 at 3 days

Query block: Find the measured CC50 at 3 days of "CNC(=O)[C@H]1CCN(c2ccc(-c3cn4cc(C(=O)N5CCc6ccccc6[C@H]5C)cc(C5CC5)c4n3)c(F)c2)C1" and report it.
Result block: > 100 µM

Query block: Specify reported CC50 at 3 days for the molecule shown: "C[C@@H]1c2ccccc2CCN1C(=O)c1cc(C2CC2)c2nc(-c3ccc(NC(=O)N4CC[C@H](O)C4)cc3F)cn2c1"
Result block: 51.4 µM

Query block: Consider the molecule "CCc1cc(C(=O)N2CCc3ccccc3[C@H]2C)nn2cc(-c3ccc(/C=C/C(=O)O)cc3F)nc12" and give its recorded CC50 at 3 days.
Result block: 17.2 µM

Query block: For C[C@@H]1c2ccccc2CCN1C(=O)c1cc(C2CC2)c2nc(-c3ccc(C4C[C@@H]4C(=O)NS(C)(=O)=O)cc3F)cn2c1 (relative stereo) , write its CC50 at 3 days.
Result block: 69.1 µM
